The values you see were collected from PubChem BioAssay AID2202556.

System: in vivo alkaline comet assay, DNA damage, mouse/rat
test_name: In vivo alkaline comet assay, summary data
Records with an inconclusive call do not appear. Calls of active or inactive are those of the source. How the calls were made is not given here.
endpoint_name: outcome

• c1ccoc1 = active; positive
• ClCC1CO1 (centres undefined) = active; positive
• CCNC(=O)CC(C)=O = active; positive
• CCOS(C)(=O)=O = active
• CNNC = active
• O=C([O-])[O-].O=C([O-])[O-].[OH-].[OH-].[OH-].[OH-].[OH-].[OH-].[Zn+2].[Zn+2].[Zn+2].[Zn+2].[Zn+2] = active
• CC(C)c1ccccc1 = active; positive
• C=CC(N)=O = active; positive
• CNC(=O)Oc1cccc2ccccc12 = active
• C=CC1(C)OC(=O)N(c2cc(Cl)cc(Cl)c2)C1=O (centres undefined) = active; positive
• OC(CCl)CCl = active; positive
• [O]=[Sb][O][Sb]=[O] = active; positive
• C=CC(=O)NC(C)(C)C = active; positive
• Nc1nc(=O)n([C@@H]2CS[C@H](CO)O2)cc1F = active; positive
• CC(=O)CC(C)=O = active; positive
• NC(=O)NO = active; positive
• NC(=O)CC(N)=O = active; positive
• CC[C@]1(O)C[C@H]2CN(CCc3c([nH]c4ccccc34)[C@@](C(=O)OC)(c3cc4c(cc3OC)N(C=O)[C@H]3[C@@](O)(C(=O)OC)[C@H](OC(C)=O)[C@]5(CC)C=CCN6CC[C@]43[C@@H]65)C2)C1 = active
